- Test system: Plasmodium falciparum
- assay-explanation: GSK_TCMDC: Inhibition of Plasmodium falciparum 3D7 LDH activity, using an LDH reporter assay. Test compounds present at 2uM
- Assay type: functional, organism-based
The campaign covered roughly 13,000 compounds. Fewer than 10 showed an effect of 50% or more. These entries were drawn from the full list.
measurement-type: inhibition (%)
State just the number; it will be interpreted in %.

Answered examples (3):
Exercise: # get_value(readout='inhibition', item= Cc1ccc(Cl)c2sc(N3CCN(C(=O)c4ccc([N+](=O)[O-])o4)CC3)nc12 )
Key: 0

Exercise: Queued: COc1ccc(CNCc2ccc(F)cc2)cc1-c1ccc(OC)c(S(=O)(=O)NCCN2CCCC2)c1
Key: 5

Exercise: Queued: O=C(/C=C/c1ccc(Cl)c(Cl)c1)NCCCCCN1CCC(CCNC(=O)Cc2ccc(Cl)cc2)CC1
Key: 0

New cases:
Exercise: # get_value(readout='inhibition', item= O=C(NCCCN1CCOCC1)c1cccc(Nc2nccc(Nc3ccc(Oc4ccccc4)cc3)n2)c1 )
Key: 0

Exercise: Queued: COc1ccc2nc3cc(Cl)ccc3c(NCCCCCCNc3c4ccc(Cl)cc4nc4ccc(OC)cc34)c2c1
Key: 0

---

- System: Plasmodium falciparum
- assay-explanation: GSK_TCMDC: Inhibition of Plasmodium falciparum 3D7 LDH activity, using an LDH reporter assay. Test compounds present at 2uM
- Type: functional, organism-based
The whole screen tested about 13,000 compounds, of which fewer than 10 showed an effect of 50% or more. Not all results are given here.
measurement-type: inhibition
Give the number first and the unit second.

Answered examples (5):
Exercise: # get_value(readout='inhibition', item= N#Cc1ccc(N2C[C@@H](OCc3ccccc3)C[C@H]2C(=O)NCCC(c2ccccc2)c2ccccc2)c2ccccc12 )
Key: 0%

Exercise: Queued: CCN(C1CCCCC1)S(=O)(=O)c1ccc(OC)c(N2CCN(C(=O)C(Cl)(Cl)Cl)CC2)c1
Key: 3%

Exercise: Queued: CC(C)(Oc1ccc(Cl)cc1)C(=O)NCCC1CCN(CCCCCNC(=O)/C=C/c2ccc(Cl)c(Cl)c2)CC1
Key: 0%

Exercise: Queued: c1cc(-c2ccc(CNCCCN3CCOCC3)cc2)cc(-c2nc3ccccc3[nH]2)c1
Key: 0%

Exercise: Queued: CCN1CCC(N(Cc2ccc(-c3ccc(C(F)(F)F)cc3)cc2)C(=O)Cn2c(CCc3cccc(F)c3F)nc(=O)c3ccccc32)CC1
Key: 3%

New cases:
Exercise: # get_value(readout='inhibition', item= COc1ccc(-c2ccc(NC(=O)c3ccccc3)cc2)cc1CN1CCCN(C)CC1 )
Key: 3%

Exercise: Queued: CC1(C)[C@H]2CC[C@@H](CNc3nc(NCCc4c[nH]cn4)nc(Nc4ccc(Oc5ccccc5)cc4)n3)[C@@H]1C2
Key: 3%

Exercise: Queued: O=C(Nc1cccc(F)c1)c1ccc(C(=O)NC2CCN(CC3CCCCC3)CC2)cc1
Key: 0%

Exercise: Queued: Cc1cccc2nc(-c3ccc(-c4cccc(CN5CCN(c6ccncc6)CC5)c4)s3)[nH]c12
Key: 6%

Exercise: Queued: Cc1cc(O)c(-c2cccc(Oc3ccc(Cl)cc3)c2)c(C)n1
Key: 0%

Exercise: Queued: O=C(OCc1ccccn1)c1nc2ccccc2[nH]1
Key: 0%

Exercise: Queued: CN(C)Cc1ccc(-c2ccc3c(Nc4ccc(Cl)cc4F)ccnc3c2)o1
Key: 0%

Exercise: Queued: Cc1cc(NC2CCN(CC3CCCCC3)C2)nc(Nc2ccc(Cl)cc2)n1 (centres undefined)
Key: 0%

Exercise: Queued: CCN(CC)CCCC(C)Nc1c2ccccc2nc2c1ccc1ccccc12 (centres undefined)
Key: 3%

Exercise: Queued: N#Cc1ccc(N/C(=N\c2ccc(-c3ccccc3)cc2)NCCc2c[nH]c3ccccc23)c(O)c1
Key: 6%

Exercise: Queued: O=C(/C=C/c1ccc(I)cc1)NCCCCCN1CCC(c2c[nH]c3ccc(O)cc23)CC1
Key: 2%

Exercise: Queued: CC(Cl)=CCc1c(C)nc2c(ccc3ccccc32)c1O
Key: 8%

Exercise: Queued: O=S(=O)(NCCN1CCCC1)c1cccc(-c2ccc(CNCc3ccsc3)cc2)c1
Key: 6%

Exercise: Queued: FC(F)(F)c1ccc2[nH]c(-c3cccc(-c4ccc(CNCC5CCCO5)cc4)c3)nc2c1 (centres undefined)
Key: 0%

---

- Test system: Plasmodium falciparum
- assay-explanation: GSK_TCMDC: Inhibition of Plasmodium falciparum 3D7 LDH activity, using an LDH reporter assay. Test compounds present at 2uM
- Assay type: functional, organism-based
Among all 13,000 compounds or so, fewer than 10 showed an effect of 50% or more. The list is a sample of the results.
Each entry below lists one item and its recorded inhibition value.
State just the number; it will be interpreted in %.

Answered examples (5):
Exercise: # get_value(readout='inhibition', item= CCOc1cc[nH]c(=O)n1 )
Key: 5

Exercise: Queued: C[C@H]1CN(Cc2cccc(-c3cc(CNC(=O)c4cccc(CC5CCN(C)CC5)c4)ccc3F)c2)CCN1C
Key: 2

Exercise: Queued: CC(C)(C)OC(=O)NCc1ccc(Nc2nnc(-c3cccc(C(=O)NCCC(c4ccccc4)c4ccccc4)c3)o2)cc1
Key: 0

Exercise: Queued: Cc1cccc2nc(-c3ccc(-c4cccc(NC(=O)Nc5ccccc5)c4)cc3)[nH]c12
Key: 9

Exercise: Queued: CC(C)NCc1ccc(-c2ccc(NC(=O)c3ccc(C#N)cc3)cc2)cc1
Key: 0

New cases:
Exercise: # get_value(readout='inhibition', item= CNCCNCc1ccc(-c2ccc(-c3nc4cc(F)ccc4[nH]3)s2)cc1 )
Key: 2

Exercise: Queued: CC(=O)Nc1ccc(OCCCCN(Cc2ccccc2C(F)(F)F)c2ccc(C#N)c(C(F)(F)F)c2)c(Cl)c1
Key: 0

Exercise: Queued: Cc1cccc2nc(-c3ccc(-c4cccc(NC(=O)c5cncn5C)c4)s3)[nH]c12
Key: 0

Exercise: Queued: CCN(CC)CCN(Cc1ccc(-c2ccc(C(F)(F)F)cc2)cc1)C(=O)Cn1c(CCc2cccc(F)c2F)nc(=O)c2ccc(F)cc21
Key: 3

---

- System: Plasmodium falciparum
- assay-explanation: GSK_TCMDC: Inhibition of Plasmodium falciparum 3D7 LDH activity, using an LDH reporter assay. Test compounds present at 2uM
- Format: functional, organism-based
The campaign covered roughly 13,000 compounds. Fewer than 10 showed an effect of 50% or more. These entries were drawn from the full list.
Each entry below lists one item and its recorded inhibition value.
State just the number; it will be interpreted in %.

Exercise: # get_value(readout='inhibition', item= CC1(C)N=C(N)N=C(N)N1c1ccc(Cl)c(Cl)c1 )
Key: 0

Exercise: Queued: CN1CCC(Oc2ccc(CN3CC[C@H](NC(=O)c4ccc(Cl)c(F)c4)C3)c3ccccc23)C1 (stereo not given in full)
Key: 3

Exercise: Queued: CN1CCN(CC(=O)Nc2cccc(-c3ccc(-c4nc5cc(F)ccc5[nH]4)cc3)c2)CC1
Key: 6

Exercise: Queued: c1ccc(-c2ccc(-c3csc(Nc4ccncc4)n3)cc2)cc1
Key: 3

Exercise: Queued: Cc1cc(N2CCCC2)nc(NC(=N)Nc2cccc(C(F)(F)F)c2)n1
Key: 1

---

- Tested on: Plasmodium falciparum
- assay-explanation: GSK_TCMDC: Inhibition of Plasmodium falciparum 3D7 LDH activity, using an LDH reporter assay. Test compounds present at 2uM
- Type: functional, organism-based
The whole screen tested about 13,000 compounds, of which fewer than 10 showed an effect of 50% or more. These entries were drawn from the full list.
measurement-type: inhibition (%)
State just the number; it will be interpreted in %.

Answered examples (5):
Exercise: # get_value(readout='inhibition', item= O=C(CC1NC(=O)c2ccccc21)Nc1ccc(-c2ccc(-c3nc4cc(C(F)(F)F)ccc4[nH]3)cc2)cc1 (stereo not drawn) )
Key: 0

Exercise: Queued: Cc1cc(-c2c[nH]c3ncc(-c4cccc5ncccc45)cc23)ccc1C(=O)O
Key: 0

Exercise: Queued: Cc1ccc(CN2CCN(Cc3cccc(NC(=O)c4cccs4)c3)CC2)cc1C
Key: 2

Exercise: Queued: CCOc1ccc2c(=NN=Cc3ccccc3F)cc(C)[nH]c2c1
Key: 0

Exercise: Queued: CC(=O)Nc1ccc(C(=O)Nc2cccc(-c3cccc(-c4nc5cc(F)ccc5[nH]4)c3)c2)cn1
Key: 1

New cases:
Exercise: # get_value(readout='inhibition', item= Cc1cc(N[C@@H](Cc2ccccc2)C(=O)NCc2cccs2)nc(NCCc2ccccn2)n1 )
Key: 0

Exercise: Queued: Cc1cccc2nc(-c3ccc(-c4ccc(CN5CCCCC5)cc4)cc3)[nH]c12
Key: 0

Exercise: Queued: Cc1ccc(-c2nc3cc(C(=O)NC4CCC(N5CCCc6ccc(C#N)cc6C5)CC4)ccc3[nH]2)cc1 (stereo not drawn)
Key: 0

---

- System: Plasmodium falciparum
- assay-explanation: GSK_TCMDC: Inhibition of Plasmodium falciparum 3D7 LDH activity, using an LDH reporter assay. Test compounds present at 2uM
- Type: functional, organism-based
In all, about 13,000 compounds went through this assay and fewer than 10 showed an effect of 50% or more. The list is a sample of the results.
measurement-type: inhibition
Give the number first and the unit second.

Exercise: # get_value(readout='inhibition', item= COc1ccc(-c2cccc(NC(=O)c3ccc(Cl)cc3)c2)cc1CN1CCNCC1 )
Key: 0%

Exercise: Queued: Fc1ccc(C=NN=c2cc[nH]c3ccccc23)cc1
Key: 4%

Exercise: Queued: ON=C(c1nc2ccccc2[nH]1)c1nc2ccccc2[nH]1
Key: 6%

New cases:
Exercise: # get_value(readout='inhibition', item= N#Cc1ccc(N2CCN(Cc3cccc(-c4ccc(-c5nc6cc(C(F)(F)F)ccc6[nH]5)cc4)c3)CC2)nc1 )
Key: 0%
